Molecular target: ENPP-1 ECD (Homo sapiens (Human), UniProt P22413)
Sequence (P22413 98-925): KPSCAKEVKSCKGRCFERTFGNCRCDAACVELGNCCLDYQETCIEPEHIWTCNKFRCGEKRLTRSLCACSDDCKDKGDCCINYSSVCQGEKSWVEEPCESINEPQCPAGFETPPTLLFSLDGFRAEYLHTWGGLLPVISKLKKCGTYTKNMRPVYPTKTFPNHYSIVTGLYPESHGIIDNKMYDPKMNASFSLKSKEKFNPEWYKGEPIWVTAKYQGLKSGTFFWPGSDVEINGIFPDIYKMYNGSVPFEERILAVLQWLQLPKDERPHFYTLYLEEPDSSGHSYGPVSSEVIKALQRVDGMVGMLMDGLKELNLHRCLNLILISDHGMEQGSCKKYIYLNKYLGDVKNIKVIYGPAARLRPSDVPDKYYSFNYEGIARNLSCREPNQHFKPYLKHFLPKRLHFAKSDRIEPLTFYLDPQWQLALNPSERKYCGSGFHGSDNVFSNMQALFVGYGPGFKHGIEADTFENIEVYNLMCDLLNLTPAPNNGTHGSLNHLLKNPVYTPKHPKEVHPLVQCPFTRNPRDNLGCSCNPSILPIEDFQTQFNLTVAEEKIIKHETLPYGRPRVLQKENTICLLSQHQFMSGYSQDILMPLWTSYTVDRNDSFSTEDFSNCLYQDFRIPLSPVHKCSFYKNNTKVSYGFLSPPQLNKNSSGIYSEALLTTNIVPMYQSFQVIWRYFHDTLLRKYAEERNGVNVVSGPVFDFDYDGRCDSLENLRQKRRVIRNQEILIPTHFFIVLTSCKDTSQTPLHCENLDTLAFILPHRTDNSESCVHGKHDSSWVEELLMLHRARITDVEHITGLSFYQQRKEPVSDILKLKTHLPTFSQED
Assay: Assay 1: inhibition of ENPP1 hydrolysis of 2′,3′-cGAMP (AMP-Glo, […] enzyme)
Settings: read-out: Assay 1 (IC50); ENPP1 hydrolysis of 2′,3′-cGAMP, AMP-Glo
pIC50: −log10 of the molar value.
Measured pIC50 values are reported for all entries that follow.

Examples from the recorded data:
COc1ccc2c(N3CCC4(CC3)CCN(S(C)(=N)=O)C4)ccnc2c1 (centres unmarked) | > 8.00
COc1cc2ncnc(N3CCC4(CC3)CCN([S@@](C)(=N)=O)C4)c2cc1OC [Compound 54a] | > 8.00
COc1ccc2c(OCc3cccc([S@](C)(=N)=O)c3)ccnc2c1 [Compound 133b] | < 6.00
COc1ccc2c(OCc3ccc([S@](C)(=N)=O)cc3)ccnc2c1 [Compound 75b] | < 6.00

Note to self: pIC50 recorded for COc1cc2nccc(Oc3ccc([S@](C)(=N)=O)cc3)c2cc1F [Compound 114a] was > 8.00

Note to self: pIC50 recorded for `COc1ccc2c(CC(=O)N3CCS(=N)(=O)CC3)ccnc2c1` was < 6.00

Note to self: pIC50 recorded for COc1cc2ncc(C#N)c(N3CCC(CCS(C)(=N)=O)CC3)c2cc1Cl (centres unmarked) was > 8.00
